This listing pairs compounds with measured pIC50.
target: PI3K β (p110β/p85α) (Homo sapiens, UniProt P42338); construct: purchased Upstate / Millipore Corporation; test: PI 3-Kinase (human) HTRF assay, PI3K β; format: biochemical; conditions: read-out: PI3K β IC50
Sequence (P42338 whole entry): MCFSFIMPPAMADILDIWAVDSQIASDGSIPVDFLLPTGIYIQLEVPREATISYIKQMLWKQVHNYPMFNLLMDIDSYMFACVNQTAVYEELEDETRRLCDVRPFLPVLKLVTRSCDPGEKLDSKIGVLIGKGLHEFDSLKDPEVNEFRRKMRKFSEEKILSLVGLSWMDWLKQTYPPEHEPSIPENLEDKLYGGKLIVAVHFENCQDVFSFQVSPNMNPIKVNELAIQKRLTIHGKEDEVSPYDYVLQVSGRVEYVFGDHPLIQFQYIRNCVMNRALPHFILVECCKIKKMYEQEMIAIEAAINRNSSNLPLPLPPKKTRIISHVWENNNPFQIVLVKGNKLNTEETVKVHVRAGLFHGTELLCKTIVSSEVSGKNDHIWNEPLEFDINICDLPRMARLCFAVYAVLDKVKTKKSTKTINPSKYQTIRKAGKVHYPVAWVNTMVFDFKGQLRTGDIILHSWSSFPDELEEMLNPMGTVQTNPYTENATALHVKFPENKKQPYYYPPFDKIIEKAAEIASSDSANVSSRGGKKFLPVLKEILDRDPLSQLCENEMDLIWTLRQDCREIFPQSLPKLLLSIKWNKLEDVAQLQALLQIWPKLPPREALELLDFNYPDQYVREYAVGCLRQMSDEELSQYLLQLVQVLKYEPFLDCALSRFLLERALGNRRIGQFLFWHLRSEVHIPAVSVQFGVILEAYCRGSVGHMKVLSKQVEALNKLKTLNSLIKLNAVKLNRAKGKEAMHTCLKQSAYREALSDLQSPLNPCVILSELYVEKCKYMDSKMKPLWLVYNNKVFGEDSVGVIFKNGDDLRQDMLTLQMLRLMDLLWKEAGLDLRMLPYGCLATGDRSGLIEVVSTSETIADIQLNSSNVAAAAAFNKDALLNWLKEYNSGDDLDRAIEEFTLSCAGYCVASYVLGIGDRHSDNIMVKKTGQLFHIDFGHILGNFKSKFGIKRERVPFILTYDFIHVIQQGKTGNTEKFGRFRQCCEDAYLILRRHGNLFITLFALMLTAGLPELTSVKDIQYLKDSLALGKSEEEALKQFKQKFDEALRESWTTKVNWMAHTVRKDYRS
Sequence (P27986 whole entry partner): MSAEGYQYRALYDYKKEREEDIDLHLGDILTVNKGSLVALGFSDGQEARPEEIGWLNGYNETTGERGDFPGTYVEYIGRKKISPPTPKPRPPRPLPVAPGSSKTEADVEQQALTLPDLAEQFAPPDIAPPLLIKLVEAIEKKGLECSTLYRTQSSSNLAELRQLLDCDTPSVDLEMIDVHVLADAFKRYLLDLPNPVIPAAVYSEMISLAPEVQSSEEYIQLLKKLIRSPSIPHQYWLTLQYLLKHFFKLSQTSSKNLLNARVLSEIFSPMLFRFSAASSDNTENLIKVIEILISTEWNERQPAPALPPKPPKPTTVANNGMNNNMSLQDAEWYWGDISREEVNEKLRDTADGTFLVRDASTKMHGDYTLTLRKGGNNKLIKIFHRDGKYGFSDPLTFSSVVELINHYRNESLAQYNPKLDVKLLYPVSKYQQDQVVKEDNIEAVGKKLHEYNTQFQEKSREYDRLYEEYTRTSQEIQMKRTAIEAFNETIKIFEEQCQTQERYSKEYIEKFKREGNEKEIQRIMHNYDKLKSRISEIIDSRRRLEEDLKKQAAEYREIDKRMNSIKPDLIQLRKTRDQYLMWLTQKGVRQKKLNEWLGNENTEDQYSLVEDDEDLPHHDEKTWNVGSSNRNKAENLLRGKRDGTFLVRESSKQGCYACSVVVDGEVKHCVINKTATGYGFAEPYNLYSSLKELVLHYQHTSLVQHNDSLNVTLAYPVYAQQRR
pIC50: −log10 of the molar value.

Some compounds with known pIC50 results, for comparison:
Request: Give reported pIC50 for CC(N)C(=O)N1CCN(c2cnc3ccc(-c4ccc5oc(N)nc5c4)cc3n2)CC1 (stereo not shown) [Compound 134] (PI3K β (p110β/p85α) (Homo sapiens, UniProt P42338))
Result: > 6.00

Request: Give measured pIC50 for Nc1nc2cc(-c3ccc4ncc(C(=O)NCCOCC(=O)O)n4c3)ccc2o1 [Compound 551] (PI3K β (p110β/p85α) (Homo sapiens, UniProt P42338)).
Result: > 6.00

Request: Provide the reported pIC50 (system: PI3K β (p110β/p85α) (Homo sapiens, UniProt P42338)) for Nc1nc2cc(-c3ccc4ncc(N5CCN(C(=O)[C@H](N)CO)CC5)nc4c3)ccc2o1 [Compound 299]
Result: > 6.00

Request: // fetch pIC50; item: COc1ncc(-c2ccc3ncn(C4CCN(C)CC4)c(=O)c3c2)cc1NS(C)(=O)=O [Compound 525] ; system: PI3K β (p110β/p85α) (Homo sapiens, UniProt P42338)
Result: > 6.00

Request: Answer with pIC50 of CC1CN(C(=O)c2cnc3ccc(-c4ccc5oc(N)nc5c4)cn23)CCO1 (stereo not shown) [Compound 201] measured for PI3K β (p110β/p85α) (Homo sapiens, UniProt P42338).
Result: > 5.00

Others:
Request: Write down measured pIC50 (PI3K β (p110β/p85α) (Homo sapiens, UniProt P42338)) for this compound. Cc1cc(-c2ccc3oc(N)nc3c2)cn2c(C(=O)N3CCOCC3)cnc12 [Compound 448]
Result: < 5.00

Request: Write down the reported pIC50 (system: PI3K β (p110β/p85α) (Homo sapiens, UniProt P42338)) of NC(=O)[C@@H]1CCCN1c1cnc2ccc(-c3ccc4oc(N)nc4c3)cc2n1 [Compound 257]
Result: < 5.00

Request: # return pIC50 of CN1CCN(C(=O)C2CN(c3cnc4ccc(-c5ccc6oc(N)nc6c5)cc4n3)C2)CC1 [Compound 170] (system: PI3K β (p110β/p85α) (Homo sapiens, UniProt P42338))
Result: > 6.00

Request: Check PI3K β (p110β/p85α) (Homo sapiens, UniProt P42338) data and give pIC50 for Nc1nc2cc(-c3ccc4ncc(C(=O)N5CC[C@@H](n6cccn6)C5)n4c3)ccc2o1 [Compound 477] .
Result: < 5.00

---

Reported pIC50 values for the following compounds.
target: PI3K γ (p110γ) (Homo sapiens, UniProt P48736); construct: purchased Upstate / Millipore Corporation; test: PI 3-Kinase (human) HTRF assay, PI3K γ; format: biochemical; conditions: read-out: PI3K γ IC50
Sequence (P48736 whole entry): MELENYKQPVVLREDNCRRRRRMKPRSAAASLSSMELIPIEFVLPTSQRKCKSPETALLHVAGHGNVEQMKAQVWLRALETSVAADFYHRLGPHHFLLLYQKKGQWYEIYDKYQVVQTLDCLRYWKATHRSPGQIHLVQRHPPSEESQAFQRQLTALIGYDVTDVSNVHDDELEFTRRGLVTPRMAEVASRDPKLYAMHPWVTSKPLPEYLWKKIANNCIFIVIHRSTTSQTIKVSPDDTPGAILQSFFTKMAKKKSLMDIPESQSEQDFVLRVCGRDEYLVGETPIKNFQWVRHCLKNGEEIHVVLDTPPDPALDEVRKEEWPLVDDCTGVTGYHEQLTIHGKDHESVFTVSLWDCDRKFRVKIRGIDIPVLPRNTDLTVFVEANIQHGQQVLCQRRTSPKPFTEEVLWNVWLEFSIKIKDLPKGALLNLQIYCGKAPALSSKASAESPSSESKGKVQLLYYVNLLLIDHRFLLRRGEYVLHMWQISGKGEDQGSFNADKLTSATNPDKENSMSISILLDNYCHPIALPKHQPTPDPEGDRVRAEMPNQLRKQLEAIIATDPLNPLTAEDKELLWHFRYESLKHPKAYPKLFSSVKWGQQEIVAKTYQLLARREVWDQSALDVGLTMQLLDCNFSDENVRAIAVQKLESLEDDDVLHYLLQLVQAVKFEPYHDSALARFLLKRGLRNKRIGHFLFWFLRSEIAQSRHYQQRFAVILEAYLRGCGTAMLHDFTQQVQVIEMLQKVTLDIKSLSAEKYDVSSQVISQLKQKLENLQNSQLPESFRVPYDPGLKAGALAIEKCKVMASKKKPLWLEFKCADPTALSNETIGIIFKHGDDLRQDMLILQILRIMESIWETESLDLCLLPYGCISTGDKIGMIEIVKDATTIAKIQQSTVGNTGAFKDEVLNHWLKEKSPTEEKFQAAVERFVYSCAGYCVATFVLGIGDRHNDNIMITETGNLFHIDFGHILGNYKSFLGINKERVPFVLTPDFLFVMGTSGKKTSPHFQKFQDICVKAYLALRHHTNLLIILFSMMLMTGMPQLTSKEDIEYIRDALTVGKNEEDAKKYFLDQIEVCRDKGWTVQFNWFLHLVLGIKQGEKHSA
pIC50: −log10 of the molar value.

Example cases with answers are listed next.
Request: Consider the compound Nc1nc2cc(-c3ccc4nccc(CCN5CCOCC5)c4c3)ccc2o1 . State its measured pIC50.
Result: > 7.00

Request: Identify pIC50 associated with the compound Nc1nc2ccc(-c3ccc4ncn(C5CCOCC5)c(=O)c4c3)cc2o1
Result: < 5.00

Request: Fill in pIC50 for record CN1CC2CN(C(=O)c3cnc4ccc(-c5ccc6oc(N)nc6c5)cn34)CC2C1 (stereo not drawn)
Result: > 6.00

Request: Quickly give me recorded pIC50 for Nc1nc2ccc(-c3ccc4nnc(-c5cccnc5)n4c3)cc2o1
Result: < 5.00

Request: Specify measured pIC50 for CC(=O)N1CCC(Nc2cnc3ccc(-c4ccc5oc(N)nc5c4)cc3n2)CC1 .
Result: > 7.00

Request: Look up and state reported pIC50 for Nc1nc2cc(-c3ccc4ncc(N5CC(C(=O)N6CCOCC6)C5)nc4c3)ccc2o1 [Compound 169]
Result: > 6.00

Others:
Request: Give the value of pIC50 reported for the following: Nc1nc2cc(-c3ccc4ncc(N5CC(N6CCCC6)C5)nc4c3)ccc2o1
Result: > 5.00

Request: Quote pIC50 reported for Nc1nc2cc(-c3cccc4[nH]nc(N)c34)ccc2o1 please.
Result: < 5.00

Request: Fill in pIC50 for record Nc1nc2cc(-c3ccc4ncc(C(=O)N5CCN(C6CC6)CC5)n4c3)ccc2o1
Result: > 5.00
